- Test system: SK-MEL-28 melanoma
- Test name: NCI-60 one-dose screen, 48 h
- Particulars: 10 µM unless noted
- Method: Growth inhibition of the SK-MEL-28 human tumor cell line is measured as a screen for anti-cancer activity. Cells are grown in 96 well plates and exposed to the test compound for 48 hours. Compounds are tested at a single concentration, which is 10^-5 M for most compounds. The reported endpoint is percent growth (GI% or GIPRCNT), where numbers from 0 - 100% represent growth inhibition, and numbers from -100% - 0 represent cell death. For example, a value of 40 represents 60% growth inhibition. […]
This is part of a sample that, as a whole, favours compounds with a hit. Of some 83,000 tested, about 20% had one in any assay. Active and inactive are the calls of the source. How the source made its calls: active means growth percent below 10; inactive means the rest.
Allowed answers: Y for active, N for inactive

Task: Assay outcome for CO[C@]12C=C/C(=C(/C(=O)OCc3cccnc3)C(=O)CCCCCCCC[C@@]3(OC)C=C/C(=C(/C(=O)OCc4cccnc4)C(=O)CCCCCCCC1)O3)O2 : what was it?
Output: Y

Task: Assay outcome for N#CC1=C(N)Oc2c(sc3c(Br)cccc23)C1c1ccc(F)cc1 (centres undefined) : what was it?
Output: N

Task: Assay outcome for Cc1ccc(-c2csc(NC(=O)CN3CCN(c4cc5c(cc4F)c(=O)c(C(=O)O)cn5C4CC4)CC3)n2)cc1 : what was it?
Output: N

Task: Assay outcome for Cc1cccc2c1NC(=O)C2(c1ccc(O)cc1)c1ccc(O)cc1 : what was it?
Output: N

Task: Assay outcome for CN(C)c1ccc(Nc2cc(-c3cccc(OC(F)(F)F)c3)nc3ccc(N4CCCC4)cc23)cc1 : what was it?
Output: Y

Task: Assay outcome for CCOC(=O)c1c(C)c2c(n1C)CSc1cc(C(=O)c3ccccc3)c(=O)[nH]c1-2 : what was it?
Output: N

Task: Assay outcome for COc1ccc2nc(NC(=O)CSc3nnc4n3S(=O)(=O)c3ccccc3N4C)sc2c1 : what was it?
Output: N

Task: Assay outcome for O=Nc1c(-c2c(O)[nH]c3ncccc23)[nH]c2ccccc12 : what was it?
Output: N

Task: Assay outcome for N#CC1C=CN(CC(N)=O)c2ccc3cccnc3c21 (centres undefined) : what was it?
Output: N

Task: Assay outcome for O=C(Nc1ccc(-c2nc(N3CCOCC3)c3cccn3n2)cc1)Nc1cccnc1 : what was it?
Output: Y

Task: Assay outcome for CCCCCCCCn1ccc2cc(NC(=O)Cn3cc(CN4CCCCC4)nn3)ccc21 : what was it?
Output: Y

Task: Assay outcome for O=C1C(Cl)=C(Nc2ccc(O)cc2)C(=O)N1Cc1ccc(Cl)cc1 : what was it?
Output: N

Task: Assay outcome for COc1cc2oc(-c3cccc(NC(=O)c4cccc(Br)c4)c3)cc(=O)c2c(OC)c1OC : what was it?
Output: N

Task: Assay outcome for O=S(=O)(Nc1ccccc1)c1ccc(C2CC3(Cl)C(Cl)=C(Cl)C2(Cl)C3(Cl)Cl)cc1 (centres undefined) : what was it?
Output: N

----------
- Test system: A549/ATCC NSCLC
- Test name: NCI-60 one-dose screen, 48 h
- Particulars: 10 µM unless noted
The panel holds about 83,000 compounds, 20% with a hit somewhere; the sample as a whole holds those more often. The source made the active and inactive calls. Rule for the calls: active = growth percent below 10; inactive = the rest.
Allowed answers: active, inactive

Task: Assay outcome for COc1cc(-c2nc(SCC(C)C)nc(Nc3cccc4ccccc34)c2C#N)cc(OC)c1OC : what was it?
Output: inactive

Task: Assay outcome for COc1ccc(C(=O)Nc2cccc(C3CC(=O)c4c(cc(OC)c(OC)c4OC)O3)c2)cc1 (stereo not given) : what was it?
Output: inactive

Task: Assay outcome for C#CCn1cnc2c(Nc3cccc(NC(=O)C=C)c3)ncnc21 : what was it?
Output: inactive

Task: Assay outcome for Clc1ccc(CNc2c3ccccc3nc3ccccc23)cc1 : what was it?
Output: inactive

Task: Assay outcome for Cc1cccc2c1NC(=O)C2(c1ccc(O)cc1)c1ccc(O)cc1 : what was it?
Output: inactive

Task: Assay outcome for COc1cc(C(=O)n2nc(N3CCN(C)CC3)c3cc(N)ccc32)cc(OC)c1OC : what was it?
Output: inactive

Task: Assay outcome for O=C1/C(=C/c2ccc(Cl)cc2)COc2ccc(O)c(O)c21 : what was it?
Output: inactive

Task: Assay outcome for C/C(=N\NC(=O)c1ccccc1O)c1cccc(/C(C)=N/NC(=O)c2ccccc2O)n1 : what was it?
Output: inactive

Task: Assay outcome for c1cc2[nH]ncc2cc1-c1nc2ccc3[nH]ncc3c2c2c1CCCC2 : what was it?
Output: active

Task: Assay outcome for O=C(NCCCN1CCOCC1)c1cccc(N2C(=O)/C(=C/c3ccc(F)cc3)SC2=S)c1 : what was it?
Output: inactive

Task: Assay outcome for Cc1ccc(S(=O)(=O)N2CCCC2CO)cc1 (stereo not given) : what was it?
Output: inactive

Task: Assay outcome for CCC(=C(c1ccc(OCCN2CCCC2)cc1)c1ccc(OCCN2CCCC2)cc1)c1ccc(Cl)cc1 : what was it?
Output: active

Task: Assay outcome for O=C(Nc1nc2ccc(F)cc2s1)c1cccnc1Nc1ccc(Cl)cc1 : what was it?
Output: inactive

Task: Assay outcome for COCCNC(=O)c1ccc(-c2nc3ccc4[nH]ncc4c3c3c2CCCC3)cc1 : what was it?
Output: inactive

Task: Assay outcome for COc1ccc(/C=N/NC(=O)CCN2c3ccccc3Sc3ccccc32)cc1 : what was it?
Output: inactive

Task: Assay outcome for Cc1cc(Cl)ccc1Nc1nc(C(F)(F)F)ccc1C(=O)N/N=C/c1ccc([N+](=O)[O-])cc1 : what was it?
Output: active

Task: Assay outcome for CC(C)OC(=O)c1ccc2[nH]c(O)c(C(=Nc3ccc(N(C)C(=O)CN4CCN(C)CC4)cc3)c3ccccc3)c2c1 : what was it?
Output: active

Task: Assay outcome for O=S(=O)(NCCNc1nccc(-c2c(-c3cccc(F)c3)nc3occn23)n1)c1ccc(Br)cc1 : what was it?
Output: inactive

Task: Assay outcome for CCOC(=O)c1nc(Nc2ccc(NC(=O)Nc3ccc(F)cc3)cc2)c2ccccc2n1 : what was it?
Output: inactive

Task: Assay outcome for COc1ccc2[nH]cc(C(c3cc(F)cc(F)c3)c3c[nH]c4ccc(OC)cc34)c2c1 : what was it?
Output: inactive

Task: Assay outcome for O=C(CSc1nc(-c2ccccc2)[nH]c1S(=O)(=O)c1ccccc1)NC1CC1 : what was it?
Output: inactive

Task: Assay outcome for CC(=O)[C@@H]1CCC=C2CC[C@]3(C)[C@@H](CC[C@@H]4[C@@]5(C)CCCNC(C)(C)[C@@H]5CC[C@]43C)[C@H]21 : what was it?
Output: active

Task: Assay outcome for CCOC(=O)c1cn2ncnc(Oc3ccc(NC(=O)NC4CCCCC4)c(Cl)c3)c2c1C : what was it?
Output: inactive

Task: Assay outcome for O=C1/C(=C/c2ccc(Cl)cc2)COc2ccc(O)cc21 : what was it?
Output: inactive

Task: Assay outcome for N#Cc1cnc(NCCc2ccncc2)nc1-n1cnc2ccccc21 : what was it?
Output: inactive

Task: Assay outcome for CN1CCN(Cc2ccc3c(NNC(=O)c4ccccc4)nc4cc(F)ccc4n23)CC1 : what was it?
Output: inactive

Task: Assay outcome for Cc1cc2c(O)c(-c3cc(Cl)ccc3Cl)c3sc(=O)oc3c2cc1C : what was it?
Output: inactive

Task: Assay outcome for CC(C)N1CCN(Cc2ccc3c(NNC(=O)c4ccccc4)nc4cc(F)ccc4n23)CC1 : what was it?
Output: inactive

Task: Assay outcome for COc1ccc(NC(=O)c2sc3nc(C)c(C(=O)/C=C/c4cccc(OC)c4)cc3c2N)cc1 : what was it?
Output: inactive

Task: Assay outcome for COCCn1cc(-c2nc(-c3cc4cccnc4n3CCOC)cs2)c2cc(OC)ccc21 : what was it?
Output: inactive

----------
- Tested on: SW-620 colon
- Test name: NCI-60 one-dose screen, 48 h (100 = growth as untreated, 0 = no growth, -100 = all killed)
- Particulars: 10 µM unless noted
This is part of a sample that, as a whole, favours compounds with a hit. Of some 83,000 tested, about 20% had one in any assay.
Measurement label: growth (%)
Entry rule: numbers only, all in %.

So for COCCNC(=O)c1ccc(-c2nc3ccc4[nH]ncc4c3c3c2CCCC3)cc1 , the logged growth turned out to be 11

So for Cc1ccc(-c2nc3nc(-c4ccc(F)cc4)nc(N4CCNCC4)c3o2)cc1 , the logged growth turned out to be -79.3

So for COC(=O)/C=C1/SC(=Nc2ccc(C)cc2)N(CCc2c[nH]c3ccc(O)cc23)C1=O , the logged growth turned out to be 44.2

So for COc1ccc(N2CCC(=O)NC2=S)cc1 , the logged growth turned out to be 96.8

So for CCN(CC)CCOc1ccc(-c2c(-c3ccccc3)c(=O)oc3ccccc23)cc1 , the logged growth turned out to be 87.3

So for O=C1Nc2ccccc2/C1=C\c1nc(-c2ccccc2F)n2ccccc12 , the logged growth turned out to be 26.2

So for CCN1C(=O)N(CC)C2C1NN=c1s/c(=C\c3cccc([N+](=O)[O-])c3)c(=O)n12 (stereo not drawn) , the logged growth turned out to be 21.1

So for N#CC1=C(N)Oc2c(sc3c(F)cccc23)C1c1ccc(F)cc1 (stereo not drawn) , the logged growth turned out to be 35.8

So for O=C(Cn1c(=O)sc2nc3ccccc3nc21)Nc1ncc(Cc2cccc(Cl)c2Cl)s1 , the logged growth turned out to be 100

So for COc1ccc(/C=C2\COc3ccc(O)cc3C2=O)c(OC)c1OC , the logged growth turned out to be 38.9

So for Nc1ncnc2c1N=C(c1ccc3c(c1)OCO3)CC(c1cccc(Nc3ccnc4cc(Cl)ccc34)c1)N2 (stereo not drawn) , the logged growth turned out to be 25.4

So for O=C(CN1C(=O)CCC1=O)Nc1ncc(Cc2ccc(F)cc2)s1 , the logged growth turned out to be 102

So for Cn1ccnc1C(=O)C(=O)Nc1ccc(CC(=O)Nc2ccccc2)cc1 , the logged growth turned out to be 102

So for N=C(N)c1ccc(-c2ccc(-c3cc(Cl)cc(Cl)c3)o2)o1 , the logged growth turned out to be -87.4

So for COc1ccc(-c2cc(-c3ccc(Cl)cc3)c(C#N)c(=O)n2CCCCC(=O)Nc2ccccc2N)cc1 , the logged growth turned out to be 71.8

So for C=CCn1c(SCC(=O)Nc2ccc(C(=O)/C=C/c3ccc(Cl)cc3)cc2)nnc1-c1cc(-c2ccc(S(N)(=O)=O)cc2)nc2ccccc12 , the logged growth turned out to be 100

So for COC1C[C@H](O[C@@H]2C[C@H](O[C@@H]3C[C@H](O[C@@H]4C(=O)c5c(cc6cc(O[C@H]7C[C@@H](O[C@H]8C[C@@H](O)[C@H](O)C(C)O8)[C@H](O)C(C)O7)c(C)c(O)c6c5O)C[C@H]4C(OC)C(=O)[C@@H](O)[C@@H](C)O)OC(C)[C@H]3O)OC(C)[C@@H]2O)OC(C)[C@@H]1O (stereo partly drawn) , the logged growth turned out to be 9.73

So for COC(=O)c1cc(-c2ccccc2)[nH]c1N/N=C/c1c(Cl)cccc1Cl , the logged growth turned out to be 13.3
